settings: 25.0 °C
experimental.endpoint: log10 OH rate constant (cm³/molecule/s)

| compound | value.observed |
| --- | --- |
| CCCOC(=O)CC | -11.4 |
| CC(C)(C)OC=O | -12.1 |
| CCCCCCCO | -10.9 |
| O=CCl | -12.5 |
| CCOCCO | -10.8 |
| CCC=C(C)C | -10.1 |
| CC(C)CCO[N+](=O)[O-] | -11.7 |
| CC(C)C(C)C(C)C | -11.2 |
| CC(=O)OC(C)(C)C | -12.3 |
| CCCCCCC(C)=O | -11 |
| C=C(C)[C@H]1CC=C(C)CC1 | -9.77 |
| CCCC(C)C | -11.3 |
| CCC#N | -12.7 |
| COC | -11.5 |
| CCOC=CC(=O)OCC | -10.5 |
| ClCC(Br)CBr (configuration not stated) | -12.4 |
| CCOC(=O)CC | -11.7 |
| CCOP(=O)(OCC)OCC | -10.3 |
| COCCBr | -11.2 |
| COC=O | -12.6 |
| CC(Cl)Cl | -12.6 |
| FC(F)F | -15.5 |
| O=[N+]([O-])OC1CCCCC1 | -11.5 |
| COP(=O)(OC)SC | -11 |
| CCCCOCC | -10.7 |
| C#CCCCC | -10.9 |
| C=CCCCOC(C)=O | -10.4 |
| COC(F)(F)F | -13.7 |
| C1CC1 | -13.1 |
| CC(=O)Cl | -14 |
| CCCOC=O | -11.6 |
| CC(F)(F)C(F)(Cl)Cl | -14.6 |
| FC(C(F)C(F)(F)C(F)(F)F)C(F)(F)F (configuration not stated) | -14.5 |
| C[N+](=O)[O-] | -12.9 |
| FCC(F)F | -13.7 |
| COCC(F)(F)F | -12.2 |
| CCCCCO[N+](=O)[O-] | -11.5 |
| CCCCO | -11.1 |
| CCCOCCC | -10.7 |
| C1=CCCC1 | -10.2 |
| CC1=CCC2C(C1)C2(C)C (configuration not stated) | -10.1 |
| CCCO | -11.3 |

* * *

Listed here are molecules together with their documented log10 OH rate constant (cm³/molecule/s).
conditions: 25.0 °C

| molecule | log10 OH rate constant (cm³/molecule/s) |
| --- | --- |
| CCOCCOC(=O)C(C)C | -10.9 |
| C=C(C)CCC | -10.2 |
| C=CC(=O)OCC | -10.8 |
| C=CCl | -11.2 |
| CCCCCCCCCCC | -10.9 |
| CCC(C)=C(C)C | -9.99 |
| CC(C)O | -11.3 |
| COCC(Cl)Cl | -11.6 |
| CC1=CCC2CC1C2(C)C (centres undefined) | -10.3 |

* * *

details: 24.0 °C

| compound.structure.string | log10 OH rate constant (cm³/molecule/s) |
| --- | --- |
| CSSC | -9.64 |
